# credit: patent US20120316071A1

TARGET OF ASSAY: T1, rHuman Erythropoietin R/Fc Chimera, CF (R&D Systems Cat#963-ER) (human, UniProt P19235 25-250)
T1 construct: Bought recombinant protein; also called EPO R; EPO R/Fc; Fc part of the bought chimera not given
T1 sequence (looked up): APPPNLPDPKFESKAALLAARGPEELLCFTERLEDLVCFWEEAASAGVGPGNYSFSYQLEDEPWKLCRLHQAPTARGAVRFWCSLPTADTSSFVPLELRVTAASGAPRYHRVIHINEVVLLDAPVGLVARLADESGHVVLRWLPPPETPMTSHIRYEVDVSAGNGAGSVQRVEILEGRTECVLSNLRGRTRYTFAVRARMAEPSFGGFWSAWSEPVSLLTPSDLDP
TEST PROTOCOL: ECL multispot (MSD) binding assay, antigen spotted on plate, Fab 0.04 uM;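 further: purified Fab incubated 1 h at 20 °C on antigen spots, detected via TAG-labelled antibody, ECL read against each well's blank, with signal-to-blank of at least 4 scored as binder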
QUANTITY MEASURED: ECL signal
Lab note: jot down the number only; don't add units.

Q: Consider the binder Fab VH5-51_IGHD5-18*01>3_IGHJ4*01 G100K/G104T (H:KT) & V3-4_IGLJ1*01 G95A (Fab, V domains shown, Fab; Expressed from Plasmid A (CH1, His6 and Flag tags) and Plasmid E (lambda CL); also called KT & G95A) VH: EVQLVQSGAEVKKPGESLKISCKGSGYSFTSYWIGWVRQMPGKGLEWMGIIYPGDSDTRYSPSFQGQVTISADKSISTAYLQWSSLKASDTAMYYCARRKYSYTYDYFDYWGQGTLVTVSS VL: QTVVTQEPSFSVSPGGTVTLTCGLSSGSVSTSYYPSWYQQTPGQAPRTLIYSTNTRSSGVPDRFSGSILGNKAALTITGAQADDESDYYCVLYMASGISYVFGTGTKVTVL and give its recorded ECL signal.
A: 637
